- test.system: 3',5'-cyclic-AMP phosphodiesterase 4B (Homo sapiens)
- Sequence (Q07343 whole entry): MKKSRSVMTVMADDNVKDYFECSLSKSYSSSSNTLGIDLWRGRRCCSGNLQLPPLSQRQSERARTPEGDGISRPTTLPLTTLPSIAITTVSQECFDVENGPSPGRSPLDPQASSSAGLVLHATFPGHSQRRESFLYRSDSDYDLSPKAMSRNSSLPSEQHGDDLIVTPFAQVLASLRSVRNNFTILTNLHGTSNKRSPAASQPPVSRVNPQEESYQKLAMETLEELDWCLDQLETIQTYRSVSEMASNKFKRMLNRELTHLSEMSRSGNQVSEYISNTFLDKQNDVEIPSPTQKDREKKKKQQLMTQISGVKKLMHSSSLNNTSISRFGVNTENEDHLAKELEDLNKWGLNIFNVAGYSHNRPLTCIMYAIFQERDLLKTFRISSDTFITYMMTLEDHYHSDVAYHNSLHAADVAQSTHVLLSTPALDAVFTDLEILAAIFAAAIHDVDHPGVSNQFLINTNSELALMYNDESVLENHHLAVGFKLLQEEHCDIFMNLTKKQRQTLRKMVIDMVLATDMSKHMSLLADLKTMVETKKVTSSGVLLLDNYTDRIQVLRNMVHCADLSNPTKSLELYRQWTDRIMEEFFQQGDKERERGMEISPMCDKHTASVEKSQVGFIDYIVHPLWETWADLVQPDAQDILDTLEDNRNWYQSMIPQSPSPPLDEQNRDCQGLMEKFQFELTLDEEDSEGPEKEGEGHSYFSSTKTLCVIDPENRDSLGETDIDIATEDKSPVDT
- assay.details: Inhibition of human recombinant PDE4B by […] scintillation proximity assay
test.readout: IC50

>  <smiles.data>
COc1ccc2cncc(Cc3nc4c([nH]3)c(=O)n(C)c(=O)n4CC(C)C)c2c1

>  <result>
> 10 µM

$$$$

###

- assay.details: Intrinsic clearance in human microsomes
- Type: ADME, Microsome

>  <smiles.data>
COc1ccc2cncc(Cc3nc4c([nH]3)c(=O)n(C)c(=O)n4CC(C)C)c2c1

>  <uom>
µL/min/mg

>  <clearance>
4

$$$$

###

- test.system: 3',5'-cyclic-AMP phosphodiesterase 4D (Homo sapiens, UniProt Q08499)
- Sequence (Q08499 whole entry): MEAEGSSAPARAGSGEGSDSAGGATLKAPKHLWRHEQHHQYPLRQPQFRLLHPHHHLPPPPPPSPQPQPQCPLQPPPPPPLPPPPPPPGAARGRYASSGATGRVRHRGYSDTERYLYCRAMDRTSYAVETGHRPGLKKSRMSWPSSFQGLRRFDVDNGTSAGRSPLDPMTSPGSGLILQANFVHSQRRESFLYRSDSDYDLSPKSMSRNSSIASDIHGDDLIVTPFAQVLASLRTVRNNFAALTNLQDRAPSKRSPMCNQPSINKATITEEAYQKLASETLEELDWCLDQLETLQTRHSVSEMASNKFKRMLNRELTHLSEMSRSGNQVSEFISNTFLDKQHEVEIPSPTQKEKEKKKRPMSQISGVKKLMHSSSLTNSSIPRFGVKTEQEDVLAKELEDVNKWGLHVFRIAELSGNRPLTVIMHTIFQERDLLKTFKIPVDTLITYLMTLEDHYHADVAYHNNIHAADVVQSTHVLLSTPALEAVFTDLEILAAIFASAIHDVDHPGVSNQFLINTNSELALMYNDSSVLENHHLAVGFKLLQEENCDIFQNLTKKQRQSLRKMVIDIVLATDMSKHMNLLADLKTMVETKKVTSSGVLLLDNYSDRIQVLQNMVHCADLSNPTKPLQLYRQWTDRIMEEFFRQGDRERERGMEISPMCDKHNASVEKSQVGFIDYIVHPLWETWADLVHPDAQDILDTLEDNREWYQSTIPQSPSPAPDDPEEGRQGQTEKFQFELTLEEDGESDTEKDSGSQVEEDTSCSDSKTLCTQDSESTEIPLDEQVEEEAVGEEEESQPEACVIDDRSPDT
- assay.details: Inhibition of human recombinant PDE4D by […] scintillation proximity assay
pIC50: −log10 of the molar value.

>  <smiles.data>
COc1ccc2cncc(Cc3nc4c([nH]3)c(=O)n(C)c(=O)n4CC(C)C)c2c1

>  <pIC50>
< 5.00

$$$$

###

- assay.details: Oral bioavailability in dog at 2.5 mg/kg
- Assay type: ADME, organism-based, Canis lupus familiaris
- condition.label: in vivo

>  <smiles.data>
COc1ccc2cncc(Cc3nc4c([nH]3)c(=O)n(C)c(=O)n4CC(C)C)c2c1

>  <bioavailability, %>
103

$$$$

###

Let's go through some pIC50 measurements on cGMP-specific 3',5'-cyclic phosphodiesterase (Homo sapiens, UniProt O76074) together.
pIC50: −log10 of the molar value.

>  <compound>
COc1cc2cncc(Cc3nc4c([nH]3)c(=O)n(C)c(=O)n4CC(C)(C)C)c2cc1OC

>  <pIC50>
8.10

$$$$
>  <compound>
COc1cc2cncc(Cc3nc4c([nH]3)c(=O)n(C)c(=O)n4CC3CC3)c2cc1OC

>  <pIC50>
7.70

$$$$
>  <compound>
COc1cc2cnc(C)c(Cc3nc4c([nH]3)c(=O)n(C)c(=O)n4CC(C)C)c2cc1OC

>  <pIC50>
7.59

$$$$
>  <compound>
COc1cc2cncc(Cc3nc4c([nH]3)c(=O)n(C)c(=O)n4CC(C)CO)c2cc1OC (racemic)

>  <pIC50>
8.22

$$$$
>  <compound>
CC(C)Cn1c(=O)n(C)c(=O)c2[nH]c(Cc3cncc4ccccc34)nc21

>  <pIC50>
7.47

$$$$
>  <compound>
COc1ccc2c(Cc3nc4c([nH]3)c(=O)n(C)c(=O)n4CC(C)C)cncc2c1

>  <pIC50>
7.29

$$$$

###

- assay.details: Intrinsic clearance in rat microsomes
- Assay type: ADME, Microsome

>  <smiles.data>
COc1ccc2cncc(Cc3nc4c([nH]3)c(=O)n(C)c(=O)n4CC(C)C)c2c1

>  <clearance>
162 µL/min/mg

$$$$

###

- assay.details: Clearance in rat at 0.8 mg/kg, iv
- Type: ADME, organism-based
- Parameters: dose 0.8 mg/kg, route intravenous
- condition.label: in vivo
test.readout: clearance

>  <smiles.data>
COc1ccc2cncc(Cc3nc4c([nH]3)c(=O)n(C)c(=O)n4CC(C)C)c2c1

>  <result>
118 mL/min/kg

$$$$

###

- assay.details: Volume of distribution at steady state in dog
- Type: ADME, organism-based, Canis lupus familiaris
- condition.label: in vivo, read-out: Vdss

>  <smiles.data>
COc1ccc2cncc(Cc3nc4c([nH]3)c(=O)n(C)c(=O)n4CC(C)C)c2c1

>  <Vd, L/kg>
2.1

$$$$

###

- assay.details: Half life in dog at 0.2 mg/kg, iv
- Format: ADME, organism-based, Canis lupus familiaris
- Design: dose 0.2 mg/kg, route intravenous
- condition.label: in vivo

>  <smiles.data>
COc1ccc2cncc(Cc3nc4c([nH]3)c(=O)n(C)c(=O)n4CC(C)C)c2c1

>  <uom>
h

>  <half-life>
1.06

$$$$

###

- assay.details: Inhibition of adenosine transporter
- Set-up: species or system Homo sapiens

>  <smiles.data>
COc1ccc2cncc(Cc3nc4c([nH]3)c(=O)n(C)c(=O)n4CC(C)C)c2c1

>  <uom>
nM

>  <Ki>
2800

$$$$

###

- assay.details: Permeability from apical to basolateral side of Caco-2 cell membrane
- Assay type: ADME, cell-based
- condition.label: human
test.readout: Papp A→B

>  <smiles.data>
COc1cc2cncc(Cc3nc4c([nH]3)c(=O)n(C)c(=O)n4CC(C)(C)C)c2cc1OC

>  <result>
234 nm/s

$$$$
>  <smiles.data>
COc1cc2cncc(Cc3nc4c([nH]3)c(=O)n(C)c(=O)n4CC(C)C)c2cc1OC

>  <result>
318 nm/s

$$$$
>  <smiles.data>
COc1cc2c(Cc3nc4c([nH]3)c(=O)n(C)c(=O)n4CC(C)C)cnc(C)c2cc1OC

>  <result>
9 nm/s

$$$$
>  <smiles.data>
COc1ccc2cncc(Cc3nc4c([nH]3)c(=O)n(C)c(=O)n4CC(C)C)c2c1

>  <result>
138 nm/s

$$$$
